Listed next: entries and their corresponding Ki.
TARGET_DESC: full-length ATR (Homo sapiens)
Construct: in the presence of 5 nM full-length ATR
MEASUREMENT_DESCRIPTION: ATR Inhibition Assay (radioactive-phosphate incorporation)
CONDITION_PARAMETERS: Ki(app); 5 nM full-length ATR, 10 μM ATP, 800 μM target peptide, 25° C.
REPORTED_METRIC: Ki

> print(dat)
                                smiles.text  reported.metric          result
1  CN(C)[C@@H]1CCN(C(=O)N2CC=C(c3cnc(N)c(-c4nc5ccccc5[nH]4)n3)CC2)C1               Ki  100 to 1000 nM
2  Nc1ncc(C2=CCN(C(=O)c3ccccn3)CC2)nc1-c1nnc(-c2ccccc2)o1               Ki        < 100 nM
3   Cc1ccc2nc(-c3nc(N4CCSCC4)cnc3N)[nH]c2c1               Ki  100 to 1000 nM
4  CNCc1ccc(-c2nnc(-c3nc(N4CCC5(C4)CN(S(=O)(=O)C(C)C)C5)cnc3N)o2)cc1               Ki  100 to 1000 nM
5  Nc1ncc(C2=CCN(C(=O)C3CCOCC3)CC2)nc1-c1nc2ccccc2[nH]1               Ki  100 to 1000 nM
6  Nc1ncc(N2CCN(C(=O)c3ccccn3)CC2)nc1-c1nc2ccccc2[nH]1               Ki  100 to 1000 nM
7  Nc1ncc(N2CC[C@H](NC(=O)C3CCCC3)C2)nc1-c1nc2ccccc2[nH]1               Ki  100 to 1000 nM
8  Nc1ncc(C2=CCN(C(=O)N3CCCCC3)CC2)nc1-c1nnc(-c2ccccc2)o1               Ki        < 100 nM

----------
TARGET_DESC: full-length ATR (Homo sapiens, UniProt Q13535)
Construct: in the presence of 5 nM full-length ATR
Sequence (Q13535 whole entry): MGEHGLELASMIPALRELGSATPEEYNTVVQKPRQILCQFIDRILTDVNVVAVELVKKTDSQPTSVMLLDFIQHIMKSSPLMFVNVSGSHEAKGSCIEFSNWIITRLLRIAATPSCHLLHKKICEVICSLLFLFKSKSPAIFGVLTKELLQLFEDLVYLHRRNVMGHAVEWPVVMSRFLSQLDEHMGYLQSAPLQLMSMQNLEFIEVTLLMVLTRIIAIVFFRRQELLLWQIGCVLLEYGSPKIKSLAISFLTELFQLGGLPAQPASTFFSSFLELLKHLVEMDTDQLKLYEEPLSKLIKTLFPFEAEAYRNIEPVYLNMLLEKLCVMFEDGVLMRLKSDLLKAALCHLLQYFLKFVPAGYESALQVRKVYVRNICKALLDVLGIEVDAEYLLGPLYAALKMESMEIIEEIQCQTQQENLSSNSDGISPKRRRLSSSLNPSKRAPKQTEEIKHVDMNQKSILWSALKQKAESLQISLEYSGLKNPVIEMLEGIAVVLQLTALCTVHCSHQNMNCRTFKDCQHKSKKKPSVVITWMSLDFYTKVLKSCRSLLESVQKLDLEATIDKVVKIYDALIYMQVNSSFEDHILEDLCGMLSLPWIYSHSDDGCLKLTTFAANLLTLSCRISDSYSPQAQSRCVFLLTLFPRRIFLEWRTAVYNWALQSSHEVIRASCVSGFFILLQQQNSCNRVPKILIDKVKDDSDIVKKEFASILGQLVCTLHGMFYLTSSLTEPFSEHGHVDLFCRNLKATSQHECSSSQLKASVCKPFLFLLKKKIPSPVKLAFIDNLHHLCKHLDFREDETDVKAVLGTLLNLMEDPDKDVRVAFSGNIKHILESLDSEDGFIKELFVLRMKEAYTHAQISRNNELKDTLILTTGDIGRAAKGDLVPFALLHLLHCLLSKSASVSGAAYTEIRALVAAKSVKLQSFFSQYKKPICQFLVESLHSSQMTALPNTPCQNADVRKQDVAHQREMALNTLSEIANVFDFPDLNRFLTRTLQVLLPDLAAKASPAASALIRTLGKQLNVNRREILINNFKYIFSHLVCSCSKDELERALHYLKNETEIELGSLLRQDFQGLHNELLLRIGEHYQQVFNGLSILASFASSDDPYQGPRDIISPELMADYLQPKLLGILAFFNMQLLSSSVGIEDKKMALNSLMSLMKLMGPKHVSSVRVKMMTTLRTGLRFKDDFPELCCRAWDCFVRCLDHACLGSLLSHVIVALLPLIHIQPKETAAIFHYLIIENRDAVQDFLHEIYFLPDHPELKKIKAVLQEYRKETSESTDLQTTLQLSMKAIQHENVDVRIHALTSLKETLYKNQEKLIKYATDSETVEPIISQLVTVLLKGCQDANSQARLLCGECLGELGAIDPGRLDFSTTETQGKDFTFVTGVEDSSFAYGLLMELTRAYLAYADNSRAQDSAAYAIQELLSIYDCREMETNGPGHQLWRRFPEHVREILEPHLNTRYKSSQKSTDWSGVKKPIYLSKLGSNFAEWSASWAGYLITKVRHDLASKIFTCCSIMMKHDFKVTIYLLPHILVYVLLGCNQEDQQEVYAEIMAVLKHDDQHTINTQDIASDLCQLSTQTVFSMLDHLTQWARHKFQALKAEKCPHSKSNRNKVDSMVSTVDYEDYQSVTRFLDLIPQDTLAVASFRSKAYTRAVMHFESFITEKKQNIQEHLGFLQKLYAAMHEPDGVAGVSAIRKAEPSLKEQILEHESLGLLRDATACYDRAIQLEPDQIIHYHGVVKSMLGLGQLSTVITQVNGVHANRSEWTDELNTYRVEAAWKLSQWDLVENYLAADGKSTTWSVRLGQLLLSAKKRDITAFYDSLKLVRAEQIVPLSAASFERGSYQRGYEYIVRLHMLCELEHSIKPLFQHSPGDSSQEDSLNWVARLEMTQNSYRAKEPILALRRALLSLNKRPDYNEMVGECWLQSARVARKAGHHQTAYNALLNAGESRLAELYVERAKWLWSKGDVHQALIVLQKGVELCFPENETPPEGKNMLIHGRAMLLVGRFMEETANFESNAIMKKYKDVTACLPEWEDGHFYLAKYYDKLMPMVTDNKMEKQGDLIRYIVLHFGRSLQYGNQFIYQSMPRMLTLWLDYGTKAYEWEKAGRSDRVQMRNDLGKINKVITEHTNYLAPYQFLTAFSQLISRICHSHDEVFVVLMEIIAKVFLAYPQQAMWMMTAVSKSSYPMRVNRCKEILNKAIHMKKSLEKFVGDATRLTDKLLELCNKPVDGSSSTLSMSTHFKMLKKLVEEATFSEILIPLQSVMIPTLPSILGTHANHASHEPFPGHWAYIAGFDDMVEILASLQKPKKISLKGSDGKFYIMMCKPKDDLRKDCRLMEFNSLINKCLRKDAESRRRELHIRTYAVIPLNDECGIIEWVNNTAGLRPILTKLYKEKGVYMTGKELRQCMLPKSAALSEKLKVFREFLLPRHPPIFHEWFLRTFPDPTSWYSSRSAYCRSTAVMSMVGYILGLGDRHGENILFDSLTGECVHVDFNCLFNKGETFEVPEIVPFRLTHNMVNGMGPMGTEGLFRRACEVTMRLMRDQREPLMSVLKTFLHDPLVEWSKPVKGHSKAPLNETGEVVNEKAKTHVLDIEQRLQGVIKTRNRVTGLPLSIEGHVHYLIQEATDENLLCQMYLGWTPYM
MEASUREMENT_DESCRIPTION: ATR Inhibition Assay (radioactive-phosphate incorporation)
CONDITION_PARAMETERS: Ki(app); 5 nM full-length ATR, 10 μM ATP, 800 μM target peptide, 25° C.
pKi: −log10 of the molar value.
Listed next: entries and their corresponding pKi.
REPORTED_METRIC: pKi

> print(dat)
                                   molecule        result
1  COCCOC(=O)N1CCN(c2cnc(N)c(-c3nc4ccccc4[nH]3)n2)CC1 [Compound I-266]  5.00 to 6.00
2  COC(=O)N1CC=C(c2cnc(N)c(-c3nc4ccccc4[nH]3)n2)CC1 [Compound I-244]  6.00 to 7.00
3  COCCOCC(=O)N1CCN(c2cnc(N)c(C(=O)Nc3ccccn3)n2)CC1 [Compound I-151]  5.00 to 6.00
4  Nc1ncc(N2CCN(S(=O)(=O)Cc3ccccc3)CC2)nc1-c1nc2ccccc2[nH]1 [Compound I-106]  6.00 to 7.00
5  CCS(=O)(=O)N1CCN(c2cnc(N)c(C(=O)Nc3ccccc3)n2)CC1 [Compound I-20]  6.00 to 7.00
6  CCS(=O)(=O)N1CC2CN(c3cnc(N)c(-c4nnc(-c5ccccc5)o4)n3)CC2C1 (centres unmarked) [Compound I-305]  6.00 to 7.00
7  CCS(=O)(=O)N1CC=C(c2cnc(N)c(C(=O)Nc3cc(C)nn3C)n2)CC1 [Compound I-168]  6.00 to 7.00
8  CCS(=O)(=O)N1CCN(c2cnc(N)c(-c3nnc(-c4ccc(CNC)cc4)o3)n2)CC1(C)C [Compound I-328]  6.00 to 7.00

Hello, the source for this data is patent US8410112B2, in case you need it.
